experiment: Human HepG2 cell viability assay in 384 well format; type: toxicity, cell-based; design: dose 125 nL, time 70.5 hour; concentration not given beside the values; settings: HepG2 cells, read-out: Inhibition
assayMetric: cytotoxicity at 70.5 h (%)

1) CN(C)c1ccc(-c2ccnc3c2ccn3C)nn1 | 18.4
2) CCc1noc(C(C)N2CCc3c(ncn3C3CC3)C2)n1 (stereo not drawn) | 28.1
3) CC(C)n1cnnc1CNC(=O)c1cnn(-c2ccccc2)c1 | 10

* * *

test: Human HepG2 cell viability assay in 384 well format; assay type: toxicity, cell-based; design: dose 125 nL, time 70.5 hour; concentration not given beside the values; settings: HepG2 cells, read-out: Inhibition
Reported cytotoxicity at 70.5 h by item:
assayMetric: cytotoxicity at 70.5 h (%)

1) COc1ccc(Cl)cc1CCNC(=O)N(C)CC1CCOC1 (centres undefined) | -1.13
2) CC(=O)CCCC(=O)N(Cc1ccsc1)CC(C)C | -5.67
3) Cc1cc(OCC(=O)N2CCCC(c3noc(C(C)C)n3)C2)no1 (centres undefined) | -1.68
4) O=C(CN1CCOC(c2ccccc2C(F)(F)F)C1)NC1CC1 (centres undefined) | -7.54
5) CCC1(O)CCCN(c2nc(C(C)(C)C)nc3c2cnn3C)C1 (centres undefined) | -9.12
6) Cc1n[nH]c(C)c1CCC(=O)NCC1COc2ccccc2C1 (centres undefined) | -2.08
7) Cc1cnc(C(=O)NCc2cccnc2OC(C)C)cn1 | 21
8) CCOC(C)c1nccn1Cc1noc(CC)n1 (centres undefined) | 16.7
9) CC(C)=CCN1CCC(c2nccn2Cc2cscn2)CC1 | -2.36

* * *

test: Human HepG2 cell viability assay in 384 well format; format: toxicity, cell-based; parameters: dose 125 nL, time 70.5 hour; concentration not given beside the values; conditions: HepG2 cells, read-out: Inhibition
assayMetric: cytotoxicity at 70.5 h (%)

1. COc1cccc(C)c1C(=O)N1C[C@@H](CN(C)C)[C@@H](CO)C1 | -4.7
2. CC(C(=O)N1CCCN(c2ncccc2C#N)CC1)n1cccn1 (stereo unspecified) | -9.79
3. COc1ccc(CN(CCC#N)CCN2CCOCC2)c(OC)c1 | -4.65
4. CCN(CC)Cc1ccc(C(=O)N2CCCCC2Cn2cccn2)o1 (stereo unspecified) | -13.1
5. O=C(C1NCCc2[nH]cnc21)N1CCC2(CC1)CNc1ccccc12 (stereo unspecified) | -11.9
6. CCCSc1ccccc1NC(=O)N1CCC(N2CCSCC2)CC1 | 0.648

* * *

test: Human HepG2 cell viability assay in 384 well format; type: toxicity, cell-based; design: dose 125 nL, time 70.5 hour; concentration not given beside the values; details: HepG2 cells, read-out: Inhibition
compounds and their reported cytotoxicity at 70.5 h
assayMetric: cytotoxicity at 70.5 h (%)

1) O=C(Nc1cnn(COc2ccc(F)cc2Cl)c1)C1CC1 | 9.89
2) CNC(=O)[C@@H]1C[C@@H](N)CN1Cc1cc2cc(C)cc(C)c2[nH]c1=O | -12
3) CCn1cc(S(=O)(=O)N(CCc2ccccc2)Cc2ccn(C)n2)cn1 | -11.1
4) O=C(c1ccncn1)N1CCC[C@]2(C[C@H](OCC3CC3)CO2)C1 | -15.2
5) COCCN1CCC(NCc2ccc(C#N)cc2)C1 (stereo unspecified) | 34.1
6) CC(C)NC(=O)N1CCCC2(CCN(c3ccsc3)C2=O)C1 (stereo unspecified) | -12.5
7) c1nc2c(c(NC3COC4(CCCC4)C3)n1)CCNCC2 (stereo unspecified) | -5.17
8) O=C(COc1ccccc1)N1CCC[C@]2(C[C@H](OCC3CC3)CO2)C1 | -7.58
9) CS(=O)(=O)N1CCC2(CC1)CN(CC1CCOC1)c1ccccc12 (stereo unspecified) | 5.41
10) CN1CCC(C)(CN(C)Cc2ccc(CCC(C)(C)O)cc2)C1 (stereo unspecified) | -6.89
11) Cc1c(Cl)c(C(=O)N2C[C@@H](C(=O)O)[C@H](c3cccnc3)C2)nn1C | 8.35
12) CC(C)Cc1noc(C2CCCCN2C(=O)CCc2cnn(C)c2)n1 (stereo unspecified) | -7.69
13) Cc1ccc(CN2CCC3(CC2)C(=O)NCCN3CC2CC2)o1 | 8.52
14) CCc1nn(C)c(Cl)c1CN1CCN(c2ccc(Cl)nn2)CC1 | 13.1
15) COc1ccc(NC(=O)c2cnc(C3CCN(C(C)=O)C3)nc2C)cc1 (stereo unspecified) | 17.3
16) NC(=O)NC(=O)CCN1C(=O)CC(Cc2ccc(F)cc2)C1=O (stereo unspecified) | -13.2
17) CC(C)c1cnc(CN(C)C2CCN(CCc3cnn(C)c3)C2)o1 (stereo unspecified) | -5.18
18) COC(=O)c1cc2n(n1)CCN(C(=O)c1csc(CN(C)C)n1)C2 | -12.3
19) COC(=O)C1CCCN1C(=O)c1cc(CC(C)C)no1 (stereo unspecified) | -1.76
20) Cc1cc(C)n(-c2ccc(C(C)NS(=O)(=O)CCCS(C)(=O)=O)cc2)n1 (stereo unspecified) | 19.6
21) CCN1CCC2(CC1)c1nc[nH]c1CCN2S(C)(=O)=O | -6.08

* * *

Overview of reported cytotoxicity at 70.5 h across a group of compounds:
test: Human HepG2 cell viability assay in 384 well format; type: toxicity, cell-based; parameters: dose 125 nL, time 70.5 hour; concentration not given beside the values; conditions: HepG2 cells, read-out: Inhibition
assayMetric: cytotoxicity at 70.5 h (%)

1. Cc1nc(CN2CCCC(CCc3ccccc3F)C2)c[nH]1 (stereo not given) | 1.04
2. CN1CCN(Cc2cccnc2)C2(CCN(c3ncc(F)cn3)C2)C1=O (stereo not given) | -6.18
3. Cc1cc2ccccc2n1CC(=O)Nc1ccnn1CC1CCOC1 (stereo not given) | -14.7
4. CCOCc1ncn2c1CN(C(=O)Nc1ccccc1CC)CC2 | 16.8
5. Cc1cccc(COC[C@]23COC[C@H]2CN(C(=O)c2ccsc2)C3)n1 | 2.91
6. O=C(CN1CCCC1Cn1cncn1)NCCOc1cccc(F)c1 (stereo not given) | -14.6
7. Cc1ccc(C2CSCCN2C(=O)c2cc(C(N)=O)cs2)o1 (stereo not given) | -8.27
8. CNc1[nH]nc(N)c1C(=O)Nc1ccc(OC)cc1 | 1.52
9. COC(=O)CN(C(=O)c1ccc(Cl)o1)c1cccc(F)c1 | -11.3
10. Cn1ccc(C(=O)N2CCC(c3cc(CCO)n(C)n3)C2)n1 (stereo not given) | -5.56

* * *

test: Human HepG2 cell viability assay in 384 well format; type: toxicity, cell-based; set-up: dose 125 nL, time 70.5 hour; concentration not given beside the values; conditions: HepG2 cells, read-out: Inhibition
assayMetric: cytotoxicity at 70.5 h (%)

1) Cc1oc(-c2cccs2)nc1C(=O)N(C)C1(C#N)CCC1 | -17.6
2) CCCN(Cc1cccnc1)C1CC(C)(C)NC(C)(C)C1 | -3.34
3) COCCCN1CC2(CCCCN2C(=O)COC)CC1=O (stereo not given) | -8.44
4) CCc1ccc(C(=O)N2CCN(CCS(C)(=O)=O)CC2)o1 | -14.1
5) Cc1nc(N2CCOCC2)nc2c1CN(C(=O)C(C)C)CC2 | 4.55
6) c1ccc(COC[C@H]2CC[C@H]3[C@H](CCN3Cc3ccccn3)O2)nc1 | -10.3
7) CCC1CN(C)c2ccccc2CN1C(=O)Nc1cccc(F)c1 (stereo not given) | -9.77
8) N#CCSCCCN1CCCN(C(=O)c2ccccc2)CC1 | -8.59
9) COc1ccc(CNC(Cc2ccsc2)c2ccc(C)cn2)cc1OC.Cl (stereo not given) | 91.5
10) O=C(N[C@H]1CC[C@@]2(CCC(=O)N2CC2CC2)CC1)c1cnccn1 | -11
11) CN(C)C(=O)N1C[C@H]2CC[C@@H]1CN(C1Cc3ccccc3C1)C2 | -9.42
12) CCOCC1CN(C(=O)c2ccncn2)Cc2cnn(CC)c21 (stereo not given) | -11.7
13) CCn1cc(C(=O)NC2CCN(S(C)(=O)=O)CC2)c2ccccc21 | -9.93
14) COCCN1C[C@H]2CN(C(=O)C3CC3)CCN2C1=O | 3.48
15) CCCn1ccnc1SCC(=O)NC(Cc1ccccc1)C(C)=O (stereo not given) | 1.89
16) COc1cccc(-c2cc(C(=O)NCCn3nc(C)nc3C)[nH]n2)c1 | -7.22
17) Cc1nn(CC(=O)N2CCC3(CN(C)C(=O)O3)C2)c(=O)c2ccccc12 (stereo not given) | -15
18) Cc1occc1C(=O)NCCOc1ccc(C(F)(F)F)cn1 | 18.8
19) O=C(NCC1(Sc2ccccc2)CC1)c1c[nH]nn1 | -0.96
20) Cc1cc(-c2cnc(N3CCCC(C)C3)nc2C(C)C)on1 (stereo not given) | 18.8
21) Cc1csc(N2CCCN(C(=O)C3(C#N)CCCCC3)CC2)n1 | -9.35
22) Cn1cnnc1C1CCCN(C(=O)c2cc(Cl)cc(Cl)c2)C1 (stereo not given) | -8.15
23) Cc1cc(CC(=O)N2CCc3cc(Br)sc3C2)n[nH]1 | 12.5
24) N#CC1(C(=O)N2CCC(Nc3cccnn3)CC2)CCCCC1 | 0.814
25) CNc1nc(C(=O)N2CCCC(CO)(CCCOC)C2)cs1 (stereo not given) | -4.71
26) CCN(CC)S(=O)(=O)N1CCCC(c2ccc(C(=O)O)cc2)C1 (stereo not given) | -4.81
27) O=C(c1cccn2ccnc12)N1CCCN(c2cccnn2)CC1 | -20.2
28) Cc1cnccc1-c1cnn(CCNC(=O)c2ccncc2)c1C1CC1 | 17.4
29) Cc1nc(CN2C(=O)C[C@@H]3[C@@H]2CCN3C(=O)C2CCOCC2)cs1 | -8.18
30) CCN1CC(C(=O)N2CCc3cc(C(N)=O)n(C)c3C2)CCC1=O (stereo not given) | -6.08

Data origin, for the record: ChEMBL document CHEMBL3507680
